Please respond with reported gcPBM binding intensity (ln) for every item in the list.
- Tested on: PfAP2-EXP AP2 domain (GST-tagged)
- Assay Protocol: gcPBM binding intensity (ln(normalized median fluorescence intensity)); higher = stronger DNA binding
Whole data set: some 25,000 sequences, median “ln(normalized median fluorescence intensity)” near 8.6, cut for the highest 2% near 10. This is one part of a sample in which the highest values are shown more often than they occur.

Working through the 6 sequences below one at a time, give gcPBM binding intensity (ln) for each.
1. TTTTATAAAGAACACAGACACACAAAGAAAGAACCA [CACACA_site4174]
2. TCATAAAAAGGAATCTTTAAGATATTTTATAAGCTC [XGTACX_negctrl_site18]
3. ATATATTTTTTAAATTTAAAAATTATAAAATTTATA [TGCATGCA_negctrl_site36]
4. AATATATTTTTTCACTGTACTTTTATTATATATACA [XGTACX_site8312]
5. CGCATAAAGACAAGAACACACATATAGATTGTAGTA [CACACA_site3693]
6. TATAATAAAATATTTTGTACGTATATTTTAATATTT [XGTACX_site2582]

Solution:
[9.02, 8.06, 8.16, 8.97, 8.27, 8.32]
